# target-of-assay: acetylcholine receptor (Homo sapiens, UniProt P02708)
# Sequence (P02708 21-457): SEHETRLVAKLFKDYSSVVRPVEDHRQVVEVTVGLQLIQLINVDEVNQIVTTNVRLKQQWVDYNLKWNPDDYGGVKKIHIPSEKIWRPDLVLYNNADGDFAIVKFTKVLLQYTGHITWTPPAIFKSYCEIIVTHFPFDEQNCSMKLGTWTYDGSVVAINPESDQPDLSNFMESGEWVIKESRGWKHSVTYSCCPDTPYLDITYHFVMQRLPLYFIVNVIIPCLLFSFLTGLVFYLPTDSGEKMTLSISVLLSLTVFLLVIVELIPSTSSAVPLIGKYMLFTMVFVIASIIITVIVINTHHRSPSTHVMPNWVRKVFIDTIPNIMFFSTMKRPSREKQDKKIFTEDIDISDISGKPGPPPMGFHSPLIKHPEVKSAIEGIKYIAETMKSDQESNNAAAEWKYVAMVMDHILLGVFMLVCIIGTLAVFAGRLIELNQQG
# experiment-summary: SPR binding affinity (RU) of optimized 5mer/6mer/7mer peptides, Examples 6-7
# condition-info: SPR, Resonance Units; peptides tested at 10 μM; 6mer-2 Bottom sequence
property-label: Binding affinity (Ru)

| substance | target-of-assay | observed-result |
| --- | --- | --- |
| 6mer-2-890 (RDNPKR) | acetylcholine receptor (Homo sapiens, UniProt P02708) | 30 |
| 6mer-2-679 (RYSAKK) | acetylcholine receptor (Homo sapiens, UniProt P02708) | 20 |
| 6mer-2-786 (RMEMRK) | acetylcholine receptor (Homo sapiens, UniProt P02708) | 30 |
